- subject_of_test: P-gp (Homo sapiens)
- Sequence (P08183 whole entry): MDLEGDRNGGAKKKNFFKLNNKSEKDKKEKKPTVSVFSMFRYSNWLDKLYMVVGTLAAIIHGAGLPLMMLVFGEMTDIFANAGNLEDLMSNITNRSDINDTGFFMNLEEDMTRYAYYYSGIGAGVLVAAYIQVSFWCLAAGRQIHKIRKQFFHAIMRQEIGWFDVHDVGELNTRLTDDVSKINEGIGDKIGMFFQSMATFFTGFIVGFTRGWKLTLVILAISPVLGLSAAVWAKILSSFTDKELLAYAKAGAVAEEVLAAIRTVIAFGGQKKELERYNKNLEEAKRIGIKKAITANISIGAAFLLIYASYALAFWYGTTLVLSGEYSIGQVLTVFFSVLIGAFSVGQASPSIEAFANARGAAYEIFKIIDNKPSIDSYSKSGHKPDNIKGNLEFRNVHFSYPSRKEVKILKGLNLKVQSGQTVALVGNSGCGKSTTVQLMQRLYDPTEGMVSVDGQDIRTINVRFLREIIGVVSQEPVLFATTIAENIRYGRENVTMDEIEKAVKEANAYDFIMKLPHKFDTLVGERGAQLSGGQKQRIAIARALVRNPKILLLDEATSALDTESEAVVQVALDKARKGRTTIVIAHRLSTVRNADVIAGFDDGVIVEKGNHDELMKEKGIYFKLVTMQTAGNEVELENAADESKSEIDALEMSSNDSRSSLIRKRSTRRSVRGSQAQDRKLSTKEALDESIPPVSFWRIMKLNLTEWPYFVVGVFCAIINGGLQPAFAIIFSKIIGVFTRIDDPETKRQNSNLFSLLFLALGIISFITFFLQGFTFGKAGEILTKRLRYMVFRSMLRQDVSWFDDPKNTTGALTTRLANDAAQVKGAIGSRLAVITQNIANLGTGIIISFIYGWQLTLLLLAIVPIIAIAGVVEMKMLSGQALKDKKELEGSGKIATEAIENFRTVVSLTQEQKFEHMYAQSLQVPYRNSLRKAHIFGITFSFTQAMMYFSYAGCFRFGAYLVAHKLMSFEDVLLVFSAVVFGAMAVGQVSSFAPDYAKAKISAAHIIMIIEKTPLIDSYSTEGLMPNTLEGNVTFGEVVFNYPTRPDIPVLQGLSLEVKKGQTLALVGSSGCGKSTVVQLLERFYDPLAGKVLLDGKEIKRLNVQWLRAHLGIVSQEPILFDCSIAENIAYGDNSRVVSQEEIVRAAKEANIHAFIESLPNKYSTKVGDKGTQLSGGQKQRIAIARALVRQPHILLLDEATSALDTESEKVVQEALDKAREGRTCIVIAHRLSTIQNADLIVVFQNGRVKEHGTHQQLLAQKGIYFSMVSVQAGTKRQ
- assay_details: in vitro
- test_settings: Efflux ratio (B to A)/(A to B)
outcome_measure: efflux ratio

Lab note: C[C@H]1O[C@@H](O[C@H]2[C@@H](O)C[C@H](O[C@H]3[C@@H](O)C[C@H](O[C@H]4CC[C@@]5(C)[C@H](CC[C@@H]6[C@@H]5C[C@@H](O)[C@]5(C)[C@@H](C7=CC(=O)OC7)CC[C@]65O)C4)O[C@@H]3C)O[C@@H]2C)C[C@H](O)[C@@H]1O gave efflux ratio of > 2

###

- assay_details: in vitro
- test_settings: human
Overview of recorded Papp for various compounds
Just the number in ×10⁻⁶ cm/s, nothing appended.

These solved cases illustrate the format of a correct answer.
compound	result_unit	recorded_result
CC[C@@]1(O)C(=O)OCc2c1cc1n(c2=O)Cc2cc3c(CN(C)C)c(O)ccc3nc2-1 [topotecan]	×10⁻⁶ cm/s	3.1
CC(C)NCC(O)COc1cccc2ccccc12 (stereo not shown) [propranolol]	×10⁻⁶ cm/s	14.8
O=C1c2c(O)ccc(O)c2C(=O)c2c(NCCNCCO)ccc(NCCNCCO)c21 [mitoxantrone]	×10⁻⁶ cm/s	0.2

// moving on: another record for Papp
The compound C[C@H]1O[C@@H](O[C@H]2[C@@H](O)C[C@H](O[C@H]3[C@@H](O)C[C@H](O[C@H]4CC[C@@]5(C)[C@H](CC[C@@H]6[C@@H]5C[C@@H](O)[C@]5(C)[C@@H](C7=CC(=O)OC7)CC[C@]65O)C4)O[C@@H]3C)O[C@@H]2C)C[C@H](O)[C@@H]1O [digoxin] showed Papp equal to 8.53

Hey, just so you know, these numbers are from paper PMC6135981.
